Reported pIC50 values for the following molecules.
Molecular target: UniProt P61073
Sequence (P61073 whole entry): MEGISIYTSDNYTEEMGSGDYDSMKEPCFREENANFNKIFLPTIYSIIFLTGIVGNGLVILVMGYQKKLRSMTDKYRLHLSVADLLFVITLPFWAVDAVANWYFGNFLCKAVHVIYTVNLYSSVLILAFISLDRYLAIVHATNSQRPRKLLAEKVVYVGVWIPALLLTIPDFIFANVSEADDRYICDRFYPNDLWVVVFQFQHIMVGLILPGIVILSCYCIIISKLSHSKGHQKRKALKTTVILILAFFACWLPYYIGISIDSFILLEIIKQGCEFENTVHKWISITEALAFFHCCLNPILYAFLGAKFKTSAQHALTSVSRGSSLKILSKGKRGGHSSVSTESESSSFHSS
Assay: Displacement of [125I]SDF-1alpha from CXCR4 (unknown origin) expressed in HEK293 cells after 1 hr by scintillation counting method
pIC50: −log10 of the molar value.

Example entries and their recorded answers appear below.
The recorded pIC50 for `CN1C(=O)[C@H](CCCNC(=N)N)NC(=O)[C@@H](Cc2ccc3ccccc3c2)NC(=O)[C@@H]2CCCN2C(=O)[C@H](Cc2ccc3ccccc3c2)NC(=O)[C@@H]1CCCNC(N)=O` is < 4.52

The recorded pIC50 for `CN1C(=O)[C@H](CCCNC(=N)N)NC(=O)[C@@H](Cc2ccc(O)cc2)NC(=O)[C@@H]2CCCN2C(=O)[C@H](Cc2ccc3ccccc3c2)NC(=O)[C@@H]1CCNC(=N)N` is < 4.52

The recorded pIC50 for `CN1C(=O)[C@H](CCCNC(=N)N)NC(=O)[C@@H](Cc2ccc(O)cc2)NC(=O)[C@@H]2CCCN2C(=O)[C@H](Cc2ccc3ccccc3c2)NC(=O)[C@@H]1CC(=O)O` is < 4.52

Others:
The recorded pIC50 for `CN1C(=O)[C@H](CCCNC(=N)N)NC(=O)[C@@H](Cc2ccccc2F)NC(=O)[C@@H]2CCCN2C(=O)[C@H](Cc2ccc3ccccc3c2)NC(=O)[C@@H]1CCCNC(N)=O` is < 4.52

The recorded pIC50 for `CN1C(=O)[C@H](CCCNC(=N)N)NC(=O)[C@@H](Cc2c[nH]c3ccccc23)NC(=O)[C@@H]2CCCN2C(=O)[C@H](Cc2ccc3ccccc3c2)NC(=O)[C@@H]1CCCNC(N)=O` is < 4.52

====

Molecular target: Atypical chemokine receptor 3 (Homo sapiens, UniProt P25106)
Sequence (P25106 whole entry): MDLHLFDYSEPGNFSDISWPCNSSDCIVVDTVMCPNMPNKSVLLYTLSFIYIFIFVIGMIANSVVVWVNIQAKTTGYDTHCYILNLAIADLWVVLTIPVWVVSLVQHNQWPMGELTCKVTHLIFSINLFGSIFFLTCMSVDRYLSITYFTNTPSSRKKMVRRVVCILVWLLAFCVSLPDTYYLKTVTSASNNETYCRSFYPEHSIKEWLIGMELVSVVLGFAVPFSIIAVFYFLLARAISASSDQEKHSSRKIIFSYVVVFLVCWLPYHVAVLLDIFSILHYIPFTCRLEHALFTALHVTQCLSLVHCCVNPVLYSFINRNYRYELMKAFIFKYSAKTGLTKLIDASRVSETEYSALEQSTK
Test: Displacement of [125I]SDF-1alpha from ACKR3 (unknown origin) expressed in CHO cells after 1 hr by scintillation counting method
Reported IC50 values for the following molecules.

Example entries and their recorded answers appear below.
Query `CC[C@H](C)[C@@H]1NC(=O)[C@@H](Cc2ccc(O)cc2)NC(=O)[C@@H]2CCCN2C(=O)[C@H](Cc2ccc3ccccc3c2)NC(=O)[C@H](CCCNC(=N)N)N(C)C1=O` on Atypical chemokine receptor 3 (Homo sapiens, UniProt P25106); IC50 returned: 2 to 24 µM

Query `C[C@@H](O)[C@@H]1NC(=O)[C@@H](Cc2ccc(O)cc2)NC(=O)[C@@H]2CCCN2C(=O)[C@H](Cc2ccc3ccccc3c2)NC(=O)[C@H](CCCNC(=N)N)N(C)C1=O` on Atypical chemokine receptor 3 (Homo sapiens, UniProt P25106); IC50 returned: 2 to 24 µM

Query `CC(C)C[C@@H]1NC(=O)[C@@H](Cc2ccc(O)cc2)NC(=O)[C@@H]2CCCN2C(=O)[C@H](Cc2ccc3ccccc3c2)NC(=O)[C@H](CCCNC(=N)N)N(C)C1=O` on Atypical chemokine receptor 3 (Homo sapiens, UniProt P25106); IC50 returned: 2 to 24 µM

Now take the following molecule into account.
Query `CC(C)[C@@H]1NC(=O)[C@@H](Cc2ccc(O)cc2)NC(=O)[C@@H]2CCCN2C(=O)[C@H](Cc2ccc3ccccc3c2)NC(=O)[C@H](CCCNC(=N)N)N(C)C1=O` on Atypical chemokine receptor 3 (Homo sapiens, UniProt P25106); IC50 returned: 2 to 24 µM
